Molecular target: T1, human Siglec15-Fc fusion protein (human, UniProt Q6ZMC9 20-263)
T1 construct: Bought protein (Acro #SG5-H5253 is named for the selection); also called recombinant Siglec 15-Fc fusion protein (Acro #SG5-H5253); human Siglec15-Fc protein; not shown: Fc part of the bought fusion protein
T1 sequence (looked up): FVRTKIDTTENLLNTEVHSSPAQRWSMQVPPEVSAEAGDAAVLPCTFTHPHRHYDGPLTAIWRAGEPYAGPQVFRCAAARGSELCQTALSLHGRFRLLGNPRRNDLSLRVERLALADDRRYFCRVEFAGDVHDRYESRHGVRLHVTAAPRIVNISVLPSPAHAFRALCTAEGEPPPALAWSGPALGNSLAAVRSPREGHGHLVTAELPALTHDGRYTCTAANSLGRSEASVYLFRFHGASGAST
Test: SPR Biacore T200; Siglec15-Fc captured on Protein A chip, scFv as analyte
MEASURE: Kd (nM)
# output: bare number, implied unit nM

Q: Item under review: 2019EP47-A02 scFv (scFv, V domains shown, Tested as a single-chain scFv made in E. coli with a C-terminal flag and 6x His tag) VH: EVQLVQSGGGVVQPGRSLRLSCAASGFTFSSYAMHWVRQAPGKGLEWVAVISYDGSNKYYADSVKGRFTISRDNSKNTLYLQMNSLRAEDTAVYYCARSRYSSSLRRYYGMDVWGQGTTVTVSS VL: AIQLTQSPSSLSASVGDRVTITCQATHDIANYLNWYQQKPGKAPKLLIYAASNLETGVPSRFSGSGSGTDFTFAISSLQPEDIAVYYCQQYDNLPLTFGGGTKVEIK . Reported Kd?
Ans: 58.8

Q: Can you share its Kd? I mean this binder: 2019EP47-A10 scFv (scFv, V domains shown, Tested as a single-chain scFv made in E. coli with a C-terminal flag and 6x His tag) VH: QMQLVQSGGGVVQPGRSLRLSCAASGFTFSSYGMHWVRQAPGKGLEWVAVISYDGSNKYYADSVKDRFTISRDNSKNTLYLQMNSLRAEDTAVYYCAKDIVGDSGSYPIYYYYGMDVWGQGTTVTVSS VL: SQSALTQPHSVSESPGKTVTISCTRSSGSIASNYVQWYQQRPGSAPSTVIYEDNQRPSGVPDRFSGSVDISSNSASLTISGLQTEDEADYYCQSYDNDNMVFGGGTKLTVL
Ans: 3.32

Q: Fill in the blank: the reported Kd of 2020EP032-A12 scFv (scFv, V domains shown, Tested as a single-chain scFv made in E. coli with a C-terminal flag and 6x His tag) VH: QMQLVQSGGGVVQPGRSLRLSCAASGFTFSSYGMHWVRQAPGKGLEWVAVISDDGSNKYYADSVKGRFTISRDNSKNTLYLQMNSLRAEDTAVYYCAKKDVATILFDNWGQGTLVTVSS VL: VIWMTQSPSTLSASVGDRVTITCRASQSITRWLAWYQQKPGKAPKLLIYKTSDLDGGVPSRFSGSESGAEFTLTISSLQPDDVATYFCQHYNTRSWTFGQGTKVELK is ____.
Ans: 2.26

Q: Which Kd is reported for this binder? 2019EP47-A05 scFv (scFv, V domains shown, Tested as a single-chain scFv made in E. coli with a C-terminal flag and 6x His tag) VH: QMQLVQSGAEVKKPGSSVKVSCKASGGTFSSYAISWVRQAPGQGLEWMGRIIPILGIANYAQKFQGRVTITADKSTSTAYMELSSLRSEDTAVYYCAVNTYYYDSSGYYYEYFDYWGQGTLVTVSS VL: EIVLTQSPSSLSASVGDRVTITCQASQHINNHLNWYQQKPGKGPKLLIYDVSNLEAGVPSRFSASGSGTDFSFTISSLQPEDFATYYCQQYDSLPLTFGQGTKVEVK
Ans: 2.79

Q: Given the entry 2020EP032-H11 scFv (scFv, V domains shown, Tested as a single-chain scFv made in E. coli with a C-terminal flag and 6x His tag) VH: EVQLVESGGGLVKPGGSLRLSCAASGFTFSSYSMNWVRQAPGKGLEWVSSISSSSSYIYYADSVKGRFTISRDNAKNSLYLQMNSLRAEDTAVYYCARDYRGYSGQNYYGMDVWGQGTTVTVSS VL: QSALTQPPSVSAAPRQKVTISCSGSSSNIGNNDVSWYQQLPGTVPKLLIYDNNKRPSGIPDRFSGSKSGTSASLGITGLQTGDEADYYCGVWDSSLSGYVFGTGTKVTVL , report its measured Kd.
Ans: 0.557
